Numbers sourced from ChEMBL document CHEMBL3885861.

Species on record: Rattus norvegicus
Measurement Notes: Open TG-GATES - Regimen: Daily Repeat
Assay type: toxicity, organism-based, Sprague-Dawley
Parameters: regimen Daily Repeat, gender Male, age 6 weeks
Test Settings: in vivo, po, 0 mg/kg, […], tissue Plasma, route gavage, dose level Control, time 28 day
Recorded Endpoint: gamma-GTP (IU/L)
Just the number in IU/L, nothing appended.

Name the recorded gamma-GTP for CC(C)NNC(=O)c1ccncc1 . 1.6

Name the recorded gamma-GTP for CCOc1ccc(NC(C)=O)cc1 . 1

Name the recorded gamma-GTP for CNC(=C[N+](=O)[O-])NCCSCc1ccc(CN(C)C)o1 . 0.8

Name the recorded gamma-GTP for Cc1nnc2n1-c1ccc(Cl)cc1C(c1ccccc1Cl)=NC2 . 1

Name the recorded gamma-GTP for CN/C(=N/CCSCc1nc[nH]c1C)NC#N . 1

Name the recorded gamma-GTP for CN1C(=O)CCS(=O)(=O)C1c1ccc(Cl)cc1 (stereo not drawn) . 1

Name the recorded gamma-GTP for Brc1ccccc1 . 1

Name the recorded gamma-GTP for O=C(OC[C@H]1O[C@@H](OC(=O)c2cc(O)c(O)c(OC(=O)c3cc(O)c(O)c(O)c3)c2)[C@H](OC(=O)c2cc(O)c(O)c(OC(=O)c3cc(O)c(O)c(O)c3)c2)[C@@H](OC(=O)c2cc(O)c(O)c(OC(=O)c3cc(O)c(O)c(O)c3)c2)[C@@H]1OC(=O)c1cc(O)c(O)c(OC(=O)c2cc(O)c(O)c(O)c2)c1)c1cc(O)c(O)c(OC(=O)c2cc(O)c(O)c(O)c2)c1 . 0.6

Name the recorded gamma-GTP for NC1=NC(=O)C(c2ccccc2)O1 (stereo not drawn) . 1

Name the recorded gamma-GTP for Nc1c2c(nc3ccccc13)CCCC2 . 1

Name the recorded gamma-GTP for CCCc1cc(=O)[nH]c(=S)[nH]1 . 1.6

Name the recorded gamma-GTP for CN(C)CCC(c1ccc(Cl)cc1)c1ccccn1 (stereo not drawn) . 1

Name the recorded gamma-GTP for COC(=O)C1=C(C)NC(C)=C(C(=O)OC)C1c1ccccc1[N+](=O)[O-] . 0.8

###

Organism: Rattus norvegicus
Measurement Notes: Open TG-GATES - Regimen: Daily Repeat
Assay type: toxicity, organism-based, Sprague-Dawley
Design: regimen Daily Repeat, gender Male, age 6 weeks
Test Settings: in vivo, po, 0 mg/kg, […], tissue Plasma, route gavage, dose level Control, time 14 day
Recorded Endpoint: TBIL (mg/dL)
Just the number in mg/dL, nothing appended.

Name the recorded TBIL for CN/C(=N/CCSCc1nc[nH]c1C)NC#N . 0.2

Name the recorded TBIL for NC1=NC(=O)C(c2ccccc2)O1 (stereo not drawn) . 0.018

Name the recorded TBIL for Cc1nnc2n1-c1ccc(Cl)cc1C(c1ccccc1Cl)=NC2 . 0.044

Name the recorded TBIL for O=C(OC[C@H]1O[C@@H](OC(=O)c2cc(O)c(O)c(OC(=O)c3cc(O)c(O)c(O)c3)c2)[C@H](OC(=O)c2cc(O)c(O)c(OC(=O)c3cc(O)c(O)c(O)c3)c2)[C@@H](OC(=O)c2cc(O)c(O)c(OC(=O)c3cc(O)c(O)c(O)c3)c2)[C@@H]1OC(=O)c1cc(O)c(O)c(OC(=O)c2cc(O)c(O)c(O)c2)c1)c1cc(O)c(O)c(OC(=O)c2cc(O)c(O)c(O)c2)c1 . 0.3

Name the recorded TBIL for CN(C)CCC(c1ccc(Cl)cc1)c1ccccn1 (stereo not drawn) . 0.038

Name the recorded TBIL for Nc1c2c(nc3ccccc13)CCCC2 . 0.012

Name the recorded TBIL for CC(C)NNC(=O)c1ccncc1 . 0.006

Name the recorded TBIL for Brc1ccccc1 . 0.032

Name the recorded TBIL for CCCc1cc(=O)[nH]c(=S)[nH]1 . 0.3

Name the recorded TBIL for CNC(=C[N+](=O)[O-])NCCSCc1ccc(CN(C)C)o1 . 0.2

Name the recorded TBIL for CCOc1ccc(NC(C)=O)cc1 . 0.062

Name the recorded TBIL for CN1C(=O)CCS(=O)(=O)C1c1ccc(Cl)cc1 (stereo not drawn) . 0.064

Name the recorded TBIL for COC(=O)C1=C(C)NC(C)=C(C(=O)OC)C1c1ccccc1[N+](=O)[O-] . 0.024
